# assay_explanation: In vitro kinase assay using purified enzyme, was incubated at room temperature with substrate, and test compounds in the presence of 100 uM ATP/ [gamma-33P] ATP. 33P incorporation was measured with scintillation counter. IC50 values were calculated from dose-response curves; from these calculated apparent inhibition constants (Ki) were obtained usin
# stated_conditions: pH 7.5
# key: entry, value: IC50
Value expressed in µM; do not type the unit.

Would you mind telling me what IC50 value was observed for NCCNc1cc(-c2ccnc(Nc3cccc(Cl)c3)n2)ccn1 ?
9.6

Now give it for Clc1cccc(Nc2nccc(-c3ccnc(NCCc4cnc[nH]4)c3)n2)c1 too.
3.2

Further cases:
Look up IC50 for this compound: OCCCNc1cc(-c2ccnc(Nc3cccc(OC(F)(F)C(F)F)c3)n2)ccn1
3.6
